Assay Metric: melting point

Ask: Value lookup for melting point; key = "CC(=O)c1cc(Br)c(N)c(CN(C)C)c1"
Reply: 92 to 95 °C

Ask: Record: "Cc1ccc(N)c(C#Cc2ccccc2)n1"
Reply: 154 to 155 °C

Ask: Record: "Cc1c(C#N)ccc([N+](=O)[O-])c1C#N"
Reply: 122 to 124 °C

Ask: Record: Oc1c(C(Nc2ccc(C(F)(F)F)cc2)c2ccccn2)ccc2cccnc12 (configuration not stated)
Reply: 158 to 161 °C

Ask: Record: "O=C(C1CCCC1)N1CCc2cc(S(=O)(=O)N3CCN(c4cccc(Cl)c4)CC3)ccc21"
Reply: 166 to 167 °C

Ask: Record: "COCCN1CCN(Cc2ccc3c(c2)-c2[nH]nc(-c4ccsc4)c2C3)CC1"
Reply: 140 to 142 °C

Ask: Record: "Cc1c(-c2ncc(Cl)cc2F)nn(C)c1C#N"
Reply: 144 to 146 °C

Ask: Record: Cc1ccc(S(=O)(=O)NCC(CC(=O)Nc2ccc(C(=O)O)cc2)c2ccc(Cl)cc2)cc1 (configuration not stated)
Reply: 250 to 252 °C

Ask: Record: "CCCCSc1cc(SCCCC)c2ccc3c(SCCCC)cc(SCCCC)c4ccc1c2c43"
Reply: 91 to 92 °C

Ask: Record: "N#Cc1c(Cl)ccc2cc(Cl)cnc12"
Reply: 222 °C

Ask: Record: "CCCO[C@@H]1C[C@@H](C(=O)NC)N(S(=O)(=O)c2ccc(Cl)c(COc3cccc4c(-n5ccnc5)cc(C)nc34)c2Cl)C1"
Reply: 84 °C

Ask: Record: "COP(=S)(OC)Oc1cc(-c2ccccc2)sc1C#N"
Reply: 95 °C

----------
Could you please report measured melting point for the items listed next?

Ask: Value lookup for melting point; key = O=c1[nH]c2cc(F)c(NCC3CCc4ccccc4C3)cc2o1 (centres undefined)
Reply: 177 to 178 °C

Ask: Record: "NCCSc1nc(-c2ccccc2)c(-c2ccccc2)[nH]1"
Reply: 152 to 154 °C

Ask: Record: COc1ncc(Cl)cc1C(O)C(N)=O (centres undefined)
Reply: 110 to 113 °C

Ask: Record: "CCOC(=O)c1ccc(Sc2cc3c(cc2C)C(C)(C)CCC3(C)C)cc1"
Reply: 109 to 110 °C

----------
Assay Metric: melting point

Ask: Value lookup for melting point; key = "Cc1cccc2c1C(=O)N1CCC[C@H]1c1c(C(=O)OC(C)(C)C)ncn1-2"
Reply: 192 to 194 °C

Ask: Record: "CC(=Cc1ccc(OCc2cccc(Cl)c2)cc1)[N+](=O)[O-]"
Reply: 117 to 118 °C

Ask: Record: "CCCc1nc(N2CCOCC2)c2cscc2n1"
Reply: 102 to 105 °C

----------
Could you please report measured melting point for the items listed next?

Ask: Value lookup for melting point; key = "Cc1cc(C)nc(NC(=O)NS(=O)(=O)c2cccc3c2CCCC3)n1"
Reply: 152 to 155 °C

Ask: Record: "N#CC=CC=CC(=O)C(F)(F)F"
Reply: 123 to 126 °C

Ask: Record: "COc1cccc(SCCF)c1S(N)(=O)=O"
Reply: 127 °C

Ask: Record: "CC(C)(C)Nc1cc(Cl)nc(Cl)n1"
Reply: 192 to 193 °C

Ask: Record: "CCCNC(=S)Nc1ccc(Oc2nc(OC)cc(OC)n2)c(C(=O)OC)n1"
Reply: 218 to 220 °C

Ask: Record: "COc1cc(C(C)=O)c(F)cc1Cl"
Reply: 96.5 to 98.5 °C

Ask: Record: "COc1ccc(CCC(=O)NCc2ccccc2)cc1"
Reply: 92 to 94 °C

Ask: Record: "O=[N+]([O-])c1ccc2c(-n3ccnc3)nnc(NCc3ccc4c(c3)OCO4)c2c1"
Reply: 154 to 156 °C

Ask: Record: O=C(C1CCCc2c1c1ccccc1n2Cc1ccccc1)N1CCN(c2ccccc2)CC1 (stereo not drawn)
Reply: 273 to 274 °C

Ask: Record: CCOC(=O)C1Cc2cc3ccccc3n2C1 (stereo not drawn)
Reply: 55 to 57 °C

Ask: Record: CC(=O)OCC1OC(n2c(=O)sc3c(Cl)nc(Cl)nc32)C(OC(C)=O)C1OC(C)=O (stereo not drawn)
Reply: 125 to 126 °C

Ask: Record: "CCN(CC)C(=O)c1cc(-c2ccccc2)c2ccccc2c1OC"
Reply: 102 to 103 °C

Ask: Record: "CC1=Cc2cc(Br)ccc2S1(=O)=O"
Reply: 149 to 151 °C

----------
Assay Metric: melting point

Ask: Value lookup for melting point; key = "COc1c(C(=O)O)cccc1[N+](=O)[O-]"
Reply: 224 to 226 °C

Ask: Record: "O=C(O)c1ccccc1NC(=O)c1ncoc1-c1ccc(C(F)(F)F)cc1"
Reply: 231 to 232 °C

Ask: Record: "CC(C)(C)c1cc(I)c2c(c1)C=NS(=O)(=O)O2"
Reply: 130 to 134 °C

Ask: Record: CN(C)C(=O)CC1(C)OCCc2c1[nH]c1ccccc21 (configuration not stated)
Reply: 149 to 151 °C

Ask: Record: "CC(C)(C)OC(=O)N[C@H](Cc1cn(Cc2ccccc2)c2ccccc12)C(=O)O"
Reply: 164 to 165 °C

Ask: Record: "CCc1c(C(=O)O)sc2[nH]c(=O)c(=O)[nH]c12"
Reply: 230 to 232 °C

Ask: Record: "Cc1nc2nc3cc(Cl)ccc3nc2[nH]1"
Reply: > 300 °C

Ask: Record: "CCn1nc2c(N)nc3cnccc3c2c1CC(C)(C)O"
Reply: 277 to 279 °C

Ask: Record: "Cc1cc(Oc2c(Cl)cc(C(F)(F)F)cc2[N+](=O)[O-])nn1C(=O)OC(C)(C)C"
Reply: 119 to 121 °C

Ask: Record: "OCc1ccc(OCc2ccccc2)c2ncccc12"
Reply: 192 to 194 °C

Ask: Record: "CSc1nc(Cl)cc(N(C)C)n1"
Reply: 102 °C

Ask: Record: "Cc1nc(Cn2c(=O)sc3cc(F)c(N4C(=O)C5=C(CCCC5)C4=O)cc32)no1"
Reply: 198 to 199 °C

----------
Could you please report measured melting point for the items listed next?

Ask: Value lookup for melting point; key = COC1=CCC2=C(CCC3C2CCC2(C)C(O)CCC32)C1 (centres undefined)
Reply: 110 °C

Ask: Record: "Cc1cc(Sc2sc(-c3ccc(C(F)(F)F)cc3)nc2C)ccc1Cc1nn[nH]n1"
Reply: 248 °C

Ask: Record: CC(=O)Nc1ccc(CCC2CSC(=O)NN2)cc1 (centres undefined)
Reply: 235 to 240 °C

Ask: Record: "CC1(C)CC(NC(=O)CCC(=O)NC2CC(C)(C)N(OC3CCCCC3)C(C)(C)C2)CC(C)(C)N1OC1CCCCC1"
Reply: 230 to 234 °C

Ask: Record: CN(C)Cc1ccc(CNC(=O)C2Cc3ccccc3N2S(=O)(=O)c2ccc(-c3ccccc3C(F)(F)F)cc2)cc1 (centres undefined)
Reply: 53 °C

Ask: Record: "COC(=O)c1ccc2c(=O)n(CC(C)C)c(CNC(=O)OC(C)(C)C)c(-c3cccs3)c2c1"
Reply: 170 to 171 °C

Ask: Record: "Cc1[nH]c2ccc(CCOS(C)(=O)=O)cc2c1C(=O)OCc1ccccc1"
Reply: 122 to 124 °C

Ask: Record: "Nc1ccc2c(c1)S(=O)(=O)c1ccccc1-2"
Reply: 261 to 264 °C

Ask: Record: CCOC(=O)C1(C)Sc2ccccc2NC1=O (centres undefined)
Reply: 109 to 111 °C

----------
Assay Metric: melting point

Ask: Value lookup for melting point; key = "COc1cc(C)c(OC)cc1C"
Reply: 108 to 110 °C

Ask: Record: CCOCC1=C(C(=O)OCC)C(c2cccc([N+](=O)[O-])c2)C(C(=O)OCC)=C(C)N1 (stereo not drawn)
Reply: 120 to 122 °C

Ask: Record: "O=[N+]([O-])c1ccc(OCc2ccc(Cl)cc2)cc1F"
Reply: 86 to 88 °C

Ask: Record: "CC1(C)CCC(C)(C)c2cc3c(cc21)CCc1c(-c2ccc(C(=O)O)cc2)c[nH]c1-3"
Reply: 268 to 270 °C

Ask: Record: Cc1c(C)c2c(c(C)c1OCc1ccccc1)C(c1ccc(C(C)C)cc1)C(C)(C)O2 (stereo not drawn)
Reply: 79 to 81 °C

Ask: Record: "CN1CCN([C@H]2CC[C@@H](N)CC2)C1=O"
Reply: 81 to 87 °C

Ask: Record: "CCN(CC)c1ccc(-c2cc(-c3ccc(C(=O)O)cc3)ccc2CCCN)cc1C(C)(C)C"
Reply: 272 °C

Ask: Record: C=CCCCCNC(=O)c1cnc(OCC(O)CNC(C)(C)C)s1 (stereo not drawn)
Reply: 80 to 81 °C

Ask: Record: "CC(=O)Nc1cc(O)c(C(=O)CCCCCl)cc1Cl"
Reply: 126 to 128 °C

Ask: Record: NC(=O)c1sc2nccc(N3CCCC(c4ccccc4)C3)c2c1N (stereo not drawn)
Reply: 267 to 269 °C

Ask: Record: CC(=O)NC(NC(=O)CC(=O)OCc1ccccc1)C(=O)NCc1ccccc1 (stereo not drawn)
Reply: 177 to 179 °C

Ask: Record: "O=C(NCCc1ccccc1)C(F)(F)F"
Reply: 50 to 52 °C

Ask: Record: O=C(NC1CCCc2c(O)cccc21)c1cccc(Cl)c1O (stereo not drawn)
Reply: 148 to 151 °C
